The reported measurements were obtained from PubChem BioAssay AID485313.

assay: qHTS Assay for NPC1 Promoter Activators; details: Huh7 NPC1 promoter luciferase reporter, 24 h; series mostly up to 9.22 µM; also: nearly all actives have a fitted effect of over 60% in size;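 as to activation: reporter is driven by a mutant NPC1 promoter; % of control where 0% means no effect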
The campaign covered roughly 320,000 compounds. About 7,600 (2.4%) were called active. Another 3% or so got no clear call; they are omitted. Calls follow the shape of the dose curve; as a rule, active = well fitted activation curve with a large enough effect; inconclusive = small, poorly fitted or top-dose-only effect; inactive = no such curve, though single readings can be large or run the other way. The entries come from a sample that favours actives as a whole.
Your answer must be one of the following: active, inactive

Problem: Could you kindly confirm the outcome this assay logged for CCC(=O)N1CCCc2ccccc21 ?
Solution: inactive

Problem: What do you have for COc1ccc2nc(NC(=O)[C@@H]3CCCN3C(=O)c3cccs3)sc2c1 ?
Solution: inactive

###

experiment: qHTS Assay for NPC1 Promoter Activators; details: Huh7 NPC1 promoter luciferase reporter, 24 h; series mostly up to 9.22 µM; also: nearly all actives have a fitted effect of over 60% in size;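 as to activation: reporter is driven by a mutant NPC1 promoter; % of control where 0% means no effect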
In all, about 320,000 compounds went through this assay and about 7,600 (2.4%) were called active. Another 3% or so got no clear call; they are omitted. The call rests on the fitted dose curve; in most records, active means well fitted activation curve with a large enough effect; inconclusive means small, poorly fitted or top-dose-only effect; inactive means no such curve, though single readings can be large or run the other way. Only a selection was taken, and actives are over-represented in it overall.
Your answer must be one of the following: 1 (yes) (active), 0 (no) (inactive)

1. O=C(Nc1cccnc1)c1cccc(S(=O)(=O)N2CCCC2)c1	0 (no)

Problem: Could you kindly confirm the outcome this assay logged for O=C(COC(=O)CNC(=O)C1CCCCC1)NCc1ccccc1 ?
Solution: 0 (no)

Problem: What do you have for O=C(Nc1cccnc1)c1cc(Cl)ccc1Cl ?
Solution: 0 (no)

Problem: What do you have for O=C(c1ccccc1)N1CCN(C(=O)N2CCCCC2)CC1 ?
Solution: 0 (no)

Problem: What do you have for O=C(Nc1cccnc1)c1noc2c1CCCCC2 ?
Solution: 1 (yes)

Problem: What do you have for O=C(Nc1ccc(NC(=O)c2ccc3c(c2)OCO3)cc1)c1cccc(Cl)c1 ?
Solution: 0 (no)

Problem: What do you have for CCN(CC)S(=O)(=O)c1ccc2[nH]c(=O)cc(C(=O)N(C)C3CCS(=O)(=O)C3)c2c1 (configuration not stated) ?
Solution: 0 (no)

Problem: What do you have for O=C(O)c1cccc(N=NN2CCCCCC2)c1 ?
Solution: 1 (yes)

Problem: What do you have for CCSc1ccccc1C(=O)Nc1ccc2c(c1)OCO2 ?
Solution: 0 (no)

Problem: What do you have for O=C(O)c1ccc(N=NN2CCOCC2)cc1 ?
Solution: 0 (no)

Problem: What do you have for CC(C)C(=O)Nc1cccc(C(=O)Nc2ccc3c(c2)OCO3)c1 ?
Solution: 1 (yes)

Problem: What do you have for O=C(NCc1ccccc1CN1CCCC1)C1CCN(S(=O)(=O)c2ccc(Cl)cc2)CC1 ?
Solution: 0 (no)

###

test: qHTS Assay for NPC1 Promoter Activators; conditions: Huh7 NPC1 promoter luciferase reporter, 24 h; series mostly up to 9.22 µM; also: nearly all actives have a fitted effect of over 60% in size;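 as to activation: reporter is driven by a mutant NPC1 promoter; % of control where 0% means no effect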
Among all 320,000 compounds or so, about 7,600 (2.4%) were called active. Another 3% or so got no clear call; they are omitted. The call rests on the fitted dose curve; in most records, active means well fitted activation curve with a large enough effect; inconclusive means small, poorly fitted or top-dose-only effect; inactive means no such curve, though single readings can be large or run the other way. The sample as a whole holds a higher share of actives than the screen did.
Your answer must be one of the following: active, inactive

Some solved entries appear below for comparison.
1. O=[N+]([O-])c1ccc2nc(-c3ccccn3)[nH]c2c1	active
2. CC(NCC(=O)Nc1ccccc1C(=O)NC1CC1)c1ccccc1Cl (stereo unspecified)	inactive
3. O=C(c1cn(-c2ccccc2)nc1-c1cccnc1)N1CCN(S(=O)(=O)c2ccccc2F)CC1	inactive
4. CN(CC(=O)NCc1ccc2c(c1)OCO2)CC(=O)Nc1ccc(F)c(F)c1F	inactive
5. CCn1c(SCC(=O)Nc2ccc3c(c2)OCCO3)nnc1C(C)C	inactive
6. COCc1c(C(=O)OCC(=O)Nc2ccc(OC(F)F)cc2)oc2ccccc12	inactive

Problem: Could you kindly confirm the outcome this assay logged for C=CCn1c(=O)c(C(=O)Nc2ncccc2O)c(O)c2ccccc21 ?
Solution: inactive

Problem: What do you have for Cc1ccc(Nc2nc(N3CCOCC3)nc(N3CCOCC3)n2)cc1Cl ?
Solution: inactive

Problem: What do you have for Cc1nonc1NC(=O)CSc1nc2ccccc2cc1C#N ?
Solution: inactive

Problem: What do you have for Cc1ccc(F)cc1NC(=O)CSCc1c(C)noc1C ?
Solution: inactive

Problem: What do you have for CCN(CC(=O)Nc1ccccc1C(F)(F)F)C(=O)C1CCN(C(=O)Nc2ccccc2)CC1 ?
Solution: inactive

Problem: What do you have for N#C/C(=C(/O)COC(=O)COc1ccc(Cl)cc1)c1nc2ccccc2[nH]1 ?
Solution: inactive

Problem: What do you have for CCOc1ccc(Nc2nc(Cl)nc(N3CCN(c4ccc(OC)cc4)CC3)n2)cc1 ?
Solution: inactive

Problem: What do you have for CCCn1c(=O)c(C(=O)Nc2cc(C)ccn2)c(O)c2ccccc21 ?
Solution: inactive

Problem: What do you have for CCn1c(SCC(=O)Nc2ccc3c(c2)OCCO3)nnc1-c1ccncc1 ?
Solution: inactive

Problem: What do you have for CCOC(=O)c1ccc(NC(=S)Nc2cc(C)cc(C)n2)cc1 ?
Solution: inactive

Problem: What do you have for CC(=O)c1c(C)[nH]c(C(=O)OCC(=O)Nc2c(C)cccc2C)c1C ?
Solution: inactive

Problem: What do you have for CCOc1ccc(C(C)NC(=O)CN2C(=O)NC3(CCCCC3)C2=O)cc1OCC (stereo unspecified) ?
Solution: inactive
